target: Pro-neuregulin-1, membrane-bound isoform (Homo sapiens); experiment: small molecules binding neuregulin-1 protein – biochemical, small-molecule microarray, fluorescence 635/667, psychiatric disease protein project, primary screen (AID 1075); details: NRG1 binding, 635 nm fluorescence, higher = more signal;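 further: score combines 667 nm spot fluorescence with signal to noise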
Measure Name: composite z-score

- CC(C)C(CO)N1C(=O)[C@@H]2C3C(=O)OCCC/C=C\[C@H]3OC23C=CCN(Cc2ccccc2)C(=O)[C@@H]13 (some centres not stated): 1.43
- CC(C)N1C(=O)C[C@@](C(=O)NCCN2CCOCC2)(c2ccc([N+](=O)[O-])cc2)[C@H]1c1ccc(CO)cc1: 0.543
- C=CCOC(=O)[C@@H]1[C@H]2C(=O)O[C@H](c3ccccc3)[C@H](c3ccccc3)N2[C@H](c2ccc(OCCOC(=O)[C@H]3C[C@H]4C(=O)N5CCC[C@H]5C(=O)N4[C@H]3c3cccc(OCCO)c3)cc2)[C@@]12C(=O)Nc1ccc(I)cc12: 0.499
- CC1CC/C=C\[C@H]2OC34C=CCN(CCN5CCOCC5)C(=O)[C@H]3N(CCCO)C(=O)[C@@H]4C2C(=O)O1 (some centres not stated): -0.376
- COC(=O)[C@@]1(Cc2ccccc2)[C@H]2c3cc(C(=O)N(C)C)n(Cc4ccc(C(F)(F)F)nc4)c3C[C@H]2CN1C(=O)c1ccccc1: 1.9
- O=C(NC1CC1)[C@@H]1c2ccccc2C(=O)N(Cc2ccc(OC(F)(F)F)cc2)[C@H]1c1ccc(CO)cc1: 1.38
- C=CCOC(=O)[C@H]1[C@@H]2C(=O)O[C@@H](c3ccccc3)[C@@H](c3ccccc3)N2[C@@H](c2ccc(OCCOC(=O)[C@@H]3C[C@@H]4C(=O)N[C@@H](CCCCNC(C)=O)C(=O)N4[C@@H]3c3cccc(OCCO)c3)cc2)[C@]12C(=O)Nc1ccccc12: 1.19
- CCCC[C@H]1OB(O)C[C@H]2C1=C(COc1ccccc1)C[C@H]1C(=O)C=CC(=O)[C@H]12: 0.169
- COc1ccc(C#Cc2ccc3c(c2)[C@]2(C(=O)N3)[C@H](C(=O)O)[C@H]3C(=O)O[C@H](c4ccccc4)[C@H](c4ccccc4)N3[C@@H]2c2ccccc2OCCO)cc1: 0.566
- N#Cc1ccc(NN2C(C(O)C3CC=CCC3)C=CC3C(=O)N(c4ccccc4)C(=O)C32)cc1 (configuration not stated): 1.89
- COCCOC(=O)N1C(=O)[C@@]2(c3cc(C#CCCO)ccc31)[C@H](c1ccccc1OCCO)N1[C@H](c3ccccc3)[C@H](c3ccccc3)OC(=O)[C@H]1[C@@H]2C(N)=O: 1.55
- C=CCN1C(=O)[C@]2(O[C@H](CCn3cc([C@H](O)c4ccccc4)nn3)[C@@H]([Si](C)(C)c3ccc(OC)cc3)[C@@H]2C)c2cc(NC(=O)c3ccc(OC)cc3)ccc21: 0.0976
- O=C1N(CCS(=O)(=O)c2ccccc2)c2ccccc2C[C@]12N=C(c1ccc(OCCCO)cc1)O[C@@H]2c1ccccc1: 0.333
- O=C(NC1CC1)[C@@H]1c2ccccc2C(=O)N(CC23CC4CC(CC(C4)C2)C3)[C@H]1c1ccc(CO)cc1: 0.264
- COc1ccc(C(O)C2C=CC3C(=O)NC(=O)C3N2Nc2ccc(Cl)cc2Cl)c2ccccc12 (configuration not stated): 0.999
- COc1ccc([Si](C)(C)[C@@H]2[C@@H](CC(=O)N3CCC[C@H]3CO)O[C@]3(C(=O)N(Cc4ccc(N5CCOC5=O)cc4)c4ccccc43)[C@H]2C)cc1: 0.717
- C=C(COC)/C(=C/C[C@H](OC(C)=O)c1ccccc1OCCO)c1cc(C(=O)OC)ccc1OC: 0.727
